- Test system: NCI-H522 lung
- assayProtocol: NCI tumour cell line growth inhibition, 48 h
attributeMeasured: TGI (µM)
Write it as a number; the unit µM goes unstated.

Request: Tell us which TGI value is on record for CC1Nc2ccccc2NC1C=C(C#N)C#N (stereo not given)
Response: 25.3

Request: Tell us which TGI value is on record for CCN(CC)CCNc1ccc2nc(C)n3c4ccc(OC)cc4c(=O)c1c23
Response: 2.74

Request: Tell us which TGI value is on record for Cc1ccc(-c2csc3ncnc(Nc4cccc(O)c4)c23)cc1
Response: 62.1

Request: Tell us which TGI value is on record for COC(=O)N1C=CC2=C(C)C3Nc4ccccc4C3C(C)=C2C1 (stereo not given)
Response: 10.7

Request: Tell us which TGI value is on record for CC[n+]1c(/C=C/c2cc(C(=O)OC)n3c2sc2ccccc23)sc2ccccc21
Response: 30.7

Request: Tell us which TGI value is on record for CC1=NN(c2nc(N)nc(CCl)n2)C(C)(C)C1
Response: 2.94

Request: Tell us which TGI value is on record for O=[N+]([O-])c1cc2c(ccc3ccccc32)o1
Response: 2.18

====

- Tested on: SF-268 CNS
- assayProtocol: NCI tumour cell line growth inhibition, 48 h
attributeMeasured: TGI

Before answering, review these 10 worked examples.
COc1ccc(C)cc1NC(=S)N/N=C/c1ccco1; > 100 µM
CC1=CC2=C(C=O)C(=O)[C@](C)(O)[C@@H](O)C2=CO1; > 69.4 µM
CC(=O)/C=C1/C(=O)C(CC(C)C)=C1CC(C)C; > 100 µM
CC(=O)NC1=C(NCCO)C(=O)c2ccccc2C1=O; > 50 µM
NC(N)=N/N=C/c1c(Cl)nc2n1CCS2; > 100 µM
CCc1cccc(CC)c1Nc1nc(-c2ccccc2-c2ccccc2)cs1; > 100 µM
Cc1c(C(=O)Nc2ccc(Oc3ccnc4cc(OCC(C)(C)O)ccc34)c(F)c2)c(=O)n(-c2ccccc2)n1C; > 100 µM
COc1cccc(/C=N/[N+](C)(C)C)c1O; > 10 µM
CCc1n[nH]c(=O)n1N; > 100 µM
COC(=O)c1cc2c3cc(Cl)ccc3[nH]c2c2ncccc12; > 100 µM

Now for another entry.
Request: Tell us which TGI value is on record for Cc1nc2sc(C(=O)Nc3cccc4c3OCCO4)c(N)c2cc1C(C)O (stereo unspecified)
Response: > 100 µM

====

- Test system: SR leukemia
- assayProtocol: NCI tumour cell line growth inhibition, 48 h
Examples of molecules with documented TGI follow.

Before answering, review these 8 worked examples.
O=S(=O)([O-])c1ccc(C=Nc2ccccc2)c([O-])c1.O=S(=O)([O-])c1ccc(C=Nc2ccccc2)c([O-])c1.[Co+2]; > 100 µM
O=c1oc2cc(O)ccc2cc1-c1nc2ccccc2o1; > 100 µM
Cc1nsc2cc(Cl)n(C)c(=O)c12; > 100 µM
COP(=O)(OC)[C@@](O)(c1ccccc1)[C@@H](O)[C@@H](O)c1ccccc1; 1.91 µM
O=C(O)CC(CC(=O)O)n1cccc1; > 100 µM
C=C(Cl)C(Cl)(CBr)CCCC(C)C (stereo not given); > 100 µM
Cc1ccc(S(=O)(=O)NC(=O)Nc2ncn[nH]2)cc1; > 100 µM
Nc1ncnc2c1ncn2C1(CO)OC(CO)C(O)C1O (stereo not given); > 100 µM

Request: Please look at O=C(O)c1cc(-c2ccc3cc(O)c(O)cc3c2)ccc1O and tell me its recorded TGI on SR leukemia.
Response: > 12.5 µM

Request: Please look at COC(=O)/C=C1/OC(c2ccccc2)=C(Br)C1=O and tell me its recorded TGI on SR leukemia.
Response: > 100 µM

====

- System: UACC-62 melanoma
- assayProtocol: NCI tumour cell line growth inhibition, 48 h
Examples of compounds with documented TGI follow.

CCc1cn(C2CC(CO)C(CO)S2)c(=O)[nH]c1=O (stereo not drawn); > 100 µM
O=C(/C=C/c1cccc(Cl)c1)c1ccccc1; 27.9 µM

Now for another entry.
Request: Tell us which TGI value is on record for COc1cc2c(c(OC)c1OC)[C@@H]1CCCCC[C@@H]1CCC2=O
Response: > 100 µM

====

Examples of compounds with documented TGI follow.
- Test system: OVCAR-3 ovarian
- assayProtocol: NCI tumour cell line growth inhibition, 48 h

Before answering, review these 2 worked examples.
CC1=C(C(=O)Nc2cc(F)c(F)cc2F)C(c2ccc(N(C)C)cc2)C(C(=O)Nc2cc(F)c(F)cc2F)=C(C)N1; 49.7 µM
CC(=O)OC1CCC2(C)C(=CCC3C2CCC2(C)C3CC3OC4(CCC(C)CN4)C(C)C32)C1 (stereo not drawn); > 100 µM

Request: Tell us which TGI value is on record for COc1cc(CNc2ccc(C)cc2)cc(OC)c1OC
Response: 0.597 µM

Request: Tell us which TGI value is on record for Cc1nsc2cc(Cl)n(C)c(=O)c12
Response: > 100 µM

Request: Tell us which TGI value is on record for CC1CCC2C(C(=O)O[C@H]3C4C=CO[C@@H](OC5OC(CO)C(O)C(O)C5O)C4[C@@]4(CO)O[C@@H]34)=CO[C@@H](OC3OC(CO)C(O)C(O)C3O)C12 (stereo partly drawn)
Response: > 10 µM

Request: Tell us which TGI value is on record for Cc1ccc(-c2csc3ncnc(Nc4cccc(O)c4)c23)cc1
Response: 50.4 µM

Request: Tell us which TGI value is on record for Cc1nc2ccccc2c(/C=C/c2ccc(F)cc2)c1C(=O)/C=C/c1ccccc1
Response: 3.12 µM

Request: Tell us which TGI value is on record for O=C(N/N=C\c1ccc([N+](=O)[O-])cc1)Nc1ccc2ccccc2c1
Response: > 100 µM

Request: Tell us which TGI value is on record for CC[C@@]1(O)C(=O)OCc2c1cc1n(c2=O)Cc2cc3c(N)c(OC)ccc3nc2-1
Response: 1.65 µM

Request: Tell us which TGI value is on record for CCOC1OC(CO[Si](C)(C)C(C)(C)C)C(O)CC1n1ccc(=O)[nH]c1=O (stereo not drawn)
Response: > 100 µM

Request: Tell us which TGI value is on record for CCSc1c2cc(OC)ccc2nc2ccc(OC)cc12
Response: > 61.2 µM

Request: Tell us which TGI value is on record for CCN1C(c2ccccc2)=CC(c2ccccc2)(C(Cl)(Cl)Cl)C=C1c1ccccc1
Response: > 100 µM

Request: Tell us which TGI value is on record for O=C(OCc1ccccc1)N1N=NC2C3CC(OCc4ccccc4)(OCc4ccccc4)C(O3)C21 (stereo not drawn)
Response: 59.6 µM

Request: Tell us which TGI value is on record for CC(Oc1ccc(Cl)cc1Cl)C(=O)NN1C(=O)CC(=O)NC1=S (stereo not drawn)
Response: > 100 µM

Request: Tell us which TGI value is on record for Cc1ccc(C)c(NC(=O)C(=O)C(C2C(C)CC(=O)C2CC(=O)O)[N+](=O)[O-])c1 (stereo not drawn)
Response: > 100 µM

Request: Tell us which TGI value is on record for C=C(Cl)C(Cl)(CBr)CCCC(C)C (stereo not drawn)
Response: 12.4 µM

Request: Tell us which TGI value is on record for O=S(=O)([O-])c1ccc(C=Nc2ccccc2)c([O-])c1.O=S(=O)([O-])c1ccc(C=Nc2ccccc2)c([O-])c1.[Co+2]
Response: > 100 µM

Request: Tell us which TGI value is on record for Oc1ccc(Br)cc1C=Nc1ccc(Oc2ccc(N=Cc3cc(Br)ccc3O)cc2)cc1
Response: > 19.6 µM

Request: Tell us which TGI value is on record for COc1ccccc1OC/C(N=Cc1cccnc1)=N/NC(=O)c1ccncc1
Response: > 100 µM

Request: Tell us which TGI value is on record for COc1ccc(C(=O)c2no[n+]([O-])c2C(=O)c2ccc(OC)cc2)cc1
Response: 3.31 µM

Request: Tell us which TGI value is on record for CC(C)(CO)CNc1nc(N)nc(Cl)c1C=O
Response: 62.8 µM

====

- System: SF-539 CNS
- assayProtocol: NCI tumour cell line growth inhibition, 48 h
Examples of compounds with documented GI50 follow.

Before answering, review these 2 worked examples.
Nc1ncnc2occ(-c3ccc(NC(=O)Nc4cccc(C(F)(F)F)c4)cc3)c12; 0.702 µM
O=C1c2c[n+](Cc3ccccc3)ccc2-c2nc3ccccc3c3ccnc1c23; 0.545 µM

Now for another entry.
Request: Tell us which GI50 value is on record for CCOC(=O)c1nc2sc(Cl)cn2c1/C=N/N=C(N)N
Response: 42.7 µM

====

Examples of compounds with documented TGI follow.
- System: CCRF-CEM leukemia
- assayProtocol: NCI tumour cell line growth inhibition, 48 h

Before answering, review these 2 worked examples.
C=CCNC(=S)NC=C(C(N)=O)C(N)=O; > 100 µM
COC(=O)c1ccc(C)cc1C1CN=NC12Cc1c(C)cccc1C2=O (stereo not drawn); > 100 µM

Now for another entry.
Request: Tell us which TGI value is on record for COc1cc2c(cc1OCCCN1CCOCC1)N=C[C@@H]1CCCN1C2=O
Response: 25.3 µM
